All values here come from patent US4436799A.

- PROCEDURE DETAILS: Transmission spectra of Ni-dye complexes on mordanted receiving element (Example 1)
- Type: physicochemical
- EXPERIMENTAL CONDITIONS: nickel sulfate/gelatin + poly(4-vinylpyridine)/gelatin mordant receiver; pH 7.0 buffer; normalized to density 1.0
Recorded Mordant λ1/2 of Ni-dye complex for the following compounds
All answers are understood in nm, so give the number only.

COc1cc(S(=O)(=O)Nc2cccc(O)c2)cnc1N=Nc1ccc(O)c2cccnc12 [J]
568
COc1cc(S(=O)(=O)NC(C)(C)C)cnc1N=Nc1ccc(O)c2cccnc12 [Compound C]
563
O=S(=O)(Nc1cccc(O)c1)c1cnc(N=Nc2ccc(O)c3cccnc23)c(Cl)c1 [Compound E]
550
CC(C)NS(=O)(=O)c1cnc(N=Nc2ccc(O)c3cc(C(=O)Nc4cccc(O)c4)c(Cl)nc23)c(Cl)c1 [H]
549
O=S(=O)(Nc1ccccc1)c1cnc(N=Nc2ccc(O)c3cccnc23)c(Cl)c1 [G]
548
CN(c1cccc(O)c1)S(=O)(=O)c1cnc(N=Nc2ccc(O)c3cccnc23)c(Cl)c1 [F]
546
NS(=O)(=O)c1cnc(N=Nc2ccc(O)c3cccnc23)c(Cl)c1 [B]
545
CC(C)NS(=O)(=O)c1cnc(N=Nc2ccc(O)c3cccnc23)c(Cl)c1 [Compound D]
547

Below: the item to evaluate.
Query: # get_value(readout='Mordant λ1/2 of Ni-dye complex', item= NS(=O)(=O)c1cccc(NS(=O)(=O)c2cnc(N=Nc3ccc(O)c4cccnc34)c(Cl)c2)c1 [A] )
Response: 553

###

- PROCEDURE DETAILS: Spectra of Ni-dye complexes in solution
- Type: physicochemical
- EXPERIMENTAL CONDITIONS: 3:1 dioxane:water, pH 7, excess nickel ion
ASSAY ENDPOINT: Solution λ1/2 of Ni-dye complex (nm)
All answers are understood in nm, so give the number only.

Answered examples (4):
CC(C)NS(=O)(=O)c1cnc(N=Nc2ccc(O)c3cccnc23)c(Cl)c1
543
CC(C)NS(=O)(=O)c1cnc(N=Nc2ccc(O)c3cc(C(=O)Nc4cccc(O)c4)c(Cl)nc23)c(Cl)c1
548
NS(=O)(=O)c1cnc(N=Nc2ccc(O)c3cccnc23)c(Cl)c1
543
O=S(=O)(Nc1cccc(O)c1)c1cnc(N=Nc2ccc(O)c3cccnc23)c(Cl)c1
544

Query: # get_value(readout='Solution λ1/2 of Ni-dye complex', item= CN(c1cccc(O)c1)S(=O)(=O)c1cnc(N=Nc2ccc(O)c3cccnc23)c(Cl)c1 )
Response: 543

Query: # get_value(readout='Solution λ1/2 of Ni-dye complex', item= COc1cc(S(=O)(=O)Nc2cccc(O)c2)cnc1N=Nc1ccc(O)c2cccnc12 )
Response: 559

Query: # get_value(readout='Solution λ1/2 of Ni-dye complex', item= COc1cc(S(=O)(=O)NC(C)(C)C)cnc1N=Nc1ccc(O)c2cccnc12 )
Response: 560

Query: # get_value(readout='Solution λ1/2 of Ni-dye complex', item= O=S(=O)(Nc1ccccc1)c1cnc(N=Nc2ccc(O)c3cccnc23)c(Cl)c1 )
Response: 542

Query: # get_value(readout='Solution λ1/2 of Ni-dye complex', item= NS(=O)(=O)c1cccc(NS(=O)(=O)c2cnc(N=Nc3ccc(O)c4cccnc34)c(Cl)c2)c1 )
Response: 548

###

- PROCEDURE DETAILS: Dye diffusion, solution test
- Format: physicochemical
- EXPERIMENTAL CONDITIONS: pH 13.4, 0.0025 M dye
Recorded Dye diffusion t1/2, Soln. for the following compounds
All answers are understood in s, so give the number only.

Answered examples (2):
CN(c1ccccc1)c1ccc(N=Nc2ccc(S(N)(=O)=O)cn2)c([O-])c1.CN(c1ccccc1)c1ccc(N=Nc2ccc(S(N)(=O)=O)cn2)c([O-])c1.[Ni+2] [Control Dye 2]
45
COc1cc(S(=O)(=O)NC(C)(C)C)cnc1N=Nc1ccc(O)c2cccnc12
37

Below: the item to evaluate.
Query: # get_value(readout='Dye diffusion t1/2, Soln.', item= CC(C)NS(=O)(=O)c1cnc(N=Nc2ccc(O)c3cc(C(=O)Nc4cccc(O)c4)c(Cl)nc23)c(Cl)c1 )
Response: 49
